All values here come from patent US11214540B2.

STUDY SYSTEM: Sigma-2 receptors on membranes from rat cerebral cortex (Rattus norvegicus (Rat))
Sequence (Q5U3Y7 whole entry): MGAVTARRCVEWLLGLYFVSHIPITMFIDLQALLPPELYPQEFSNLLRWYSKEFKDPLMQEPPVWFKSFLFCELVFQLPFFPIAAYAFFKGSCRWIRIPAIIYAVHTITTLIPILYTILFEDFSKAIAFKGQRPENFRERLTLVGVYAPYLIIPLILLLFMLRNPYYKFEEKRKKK
pKi: −log10 of the molar value.

COMPOUND	STUDY SYSTEM	pKi
CC(C)(CCN1CCC(O)CC1)c1ccc(C(F)(F)F)cc1 [Example 17]	Sigma-2 receptors on membranes from rat cerebral cortex (Rattus norvegicus (Rat))	8.29
CC(CC(C)(C)c1ccc(C(F)(F)F)cc1)N1CCC(O)CC1 (stereo not drawn) [Compound 13]	Sigma-2 receptors on membranes from rat cerebral cortex (Rattus norvegicus (Rat))	8.54
COC1CCN(C(C)CC(C)(C)c2ccc(C(F)(F)F)cc2)CC1 (stereo not drawn) [Compound 6]	Sigma-2 receptors on membranes from rat cerebral cortex (Rattus norvegicus (Rat))	9.00
CC(=O)N1CCN(C(C=C(C)C)CC(C)(C)c2ccc(C(F)(F)F)cc2)CC1 (stereo not drawn) [Compound 71]	Sigma-2 receptors on membranes from rat cerebral cortex (Rattus norvegicus (Rat))	6.47
COCCCC1CCN(C(C=C(C)C)CC(C)(C)c2ccc(Cl)cc2)CC1 (stereo not drawn) [Compound 23]	Sigma-2 receptors on membranes from rat cerebral cortex (Rattus norvegicus (Rat))	8.04
CC(C)=CC(CC(C)(C)c1ccc(C(F)(F)F)cc1)N1CCC(C(F)(F)F)CC1 (stereo not drawn) [Compound 70]	Sigma-2 receptors on membranes from rat cerebral cortex (Rattus norvegicus (Rat))	6.47
CC(C)=CC(CC(C)(C)c1ccc(F)cc1)N1CCC(O)CC1 (stereo not drawn) [Compound 79]	Sigma-2 receptors on membranes from rat cerebral cortex (Rattus norvegicus (Rat))	6.03
CC(C)=CC(CC(C)(C)c1ccc(Cl)cc1)N1CCC(C)(O)CC1 (stereo not drawn) [Compound 73]	Sigma-2 receptors on membranes from rat cerebral cortex (Rattus norvegicus (Rat))	6.39
CC(C)=C[C@@H](CC(C)(C)c1ccc(C(F)(F)F)cc1)N1CCC[C@@H]1CO [Compound 83]	Sigma-2 receptors on membranes from rat cerebral cortex (Rattus norvegicus (Rat))	6.00
CC(CC(C)(C)c1ccc(Cl)cc1)N1CCC(O)CC1 (stereo not drawn) [Compound 20]	Sigma-2 receptors on membranes from rat cerebral cortex (Rattus norvegicus (Rat))	8.21
CC(C)=CC(CC(C)(C)c1ccc(Cl)cc1)N1CCC(C2CCOCC2)CC1 (stereo not drawn) [Compound 11]	Sigma-2 receptors on membranes from rat cerebral cortex (Rattus norvegicus (Rat))	8.66
CC(C)=CC(CC(C)(C)c1ccc(C)cc1)N1CCN(c2ccccc2)CC1 (stereo not drawn) [Compound 60]	Sigma-2 receptors on membranes from rat cerebral cortex (Rattus norvegicus (Rat))	6.68
CC(C)=CC(CC(C)(C)c1ccc(C(F)(F)F)cc1)N1CCC(C2CCOCC2)CC1 (stereo not drawn) [Example 9]	Sigma-2 receptors on membranes from rat cerebral cortex (Rattus norvegicus (Rat))	8.74
CC(C)=CC(CC(C)(C)c1ccc(C)cc1)NCc1ccc(C)cc1 (stereo not drawn) [Compound 54]	Sigma-2 receptors on membranes from rat cerebral cortex (Rattus norvegicus (Rat))	6.92
CC(C)=CC(CC(C)(C)c1ccc(Cl)cc1)N1CCC(O)CC1 (stereo not drawn) [Compound 77]	Sigma-2 receptors on membranes from rat cerebral cortex (Rattus norvegicus (Rat))	6.10
CC(C)=CC(CC(C)(C)c1ccc(C)cc1)NCC1CCOCC1 (stereo not drawn) [Compound 57]	Sigma-2 receptors on membranes from rat cerebral cortex (Rattus norvegicus (Rat))	6.82
CC(C)=CC(CC(C)(C)c1ccc(F)cc1)N1CCN(C(=O)OC(C)(C)C)CC1 (stereo not drawn) [Compound 47]	Sigma-2 receptors on membranes from rat cerebral cortex (Rattus norvegicus (Rat))	7.05
CC(C)=CC(CC(C)(C)c1ccc(Cl)cc1)N1CCC(CCO)CC1 (stereo not drawn) [Compound 53]	Sigma-2 receptors on membranes from rat cerebral cortex (Rattus norvegicus (Rat))	6.96
